System: Serine/threonine-protein kinase pim-2 (Homo sapiens) | Read-out: pKi | Origin: multiple publications
pKi: −log10 of the molar value.

{"Smiles Entry": "CC[C@@H]1CN(c2cccc(-n3ncc4cnc(-c5cnn(CC)c5)cc43)n2)CCN1", "pKi": 7.82}
{"Smiles Entry": "COc1ccc(-n2ncc3cnc(-c4cnn(CC(F)(F)F)c4)cc32)nc1N1CCNC[C@H](O)C1", "pKi": 8.00}
{"Smiles Entry": "Cn1ncc(NC(=O)c2nc(-c3c(F)cccc3F)sc2N)c1N1CC[C@H](CN)C1", "pKi": 7.97}
{"Smiles Entry": "Cc1nc(C(=O)Nc2cnccc2N2CCC[C@H](N)C2)c(N)s1", "pKi": 7.79}

###

System: Serine/threonine-protein kinase pim-2 (Homo sapiens) | Read-out: Ki | Origin: multiple publications

{"Compound": "Nc1sc(-c2ccc3cccnc3c2)nc1C(=O)Nc1cnccc1N1CCC[C@H](N)C1", "Ki, nM": 0.512}
{"Compound": "Cc1cc(-c2cc3c(cn2)cnn3-c2cccc(N3CCNCC3)n2)sn1", "Ki, nM": 8.49}
{"Compound": "Cn1ncc(NC(=O)c2nc(-c3ccccc3F)ccc2N)c1N1CC[C@@H](N)C1", "Ki, nM": 28.5}
{"Compound": "Nc1sc(-c2cc(Br)ccc2F)nc1C(=O)Nc1cnccc1N1CCC[C@H](N)C1", "Ki, nM": 0.154}
{"Compound": "Cc1cncc(-c2cc3c(cn2)cnn3-c2cccc(N3CCNCC3)n2)n1", "Ki, nM": 0.893}
{"Compound": "Cn1cc(-c2cc3c(cn2)cnn3-c2cccc(N3CC4(CCCCN4)C3)n2)cn1", "Ki, nM": 29.3}
{"Compound": "CC(C)c1cncc(-c2cc3c(cn2)cnn3-c2cccc(N3CCCNCC3)n2)c1", "Ki, nM": 2.76}
{"Compound": "Cc1cncc(-c2cc3c(cn2)cnn3-c2cccc(N3CCCC(N)C3C)n2)n1 (stereo not shown)", "Ki, nM": 1.03}
{"Compound": "C[C@@]1(O)CNCCN(c2cccc(-n3ncc4cnc(-c5cnn(CC(F)(F)F)c5)cc43)n2)C1", "Ki, nM": 16.8}
{"Compound": "Nc1sc(-c2ccc(F)cc2F)nc1C(=O)Nc1cnccc1N1CCC[C@H](N)C1", "Ki, nM": 0.0939}

###

pKi: −log10 of the molar value.
System: Serine/threonine-protein kinase pim-2 (Homo sapiens) | Read-out: pKi | Origin: multiple publications
pKi vs 9: at or above is fulfilled, below is not fulfilled.

{"Molecule": "CCc1cncc(-c2cc3c(cn2)cnn3-c2cccc(N3CCCNCC3)n2)n1", "Group Label": "fulfilled"}
{"Molecule": "Cn1ncc(NC(=O)c2ccc(F)c(-c3c(F)cccc3F)n2)c1N1CCC[C@@H](N)CC1", "Group Label": "not fulfilled"}
{"Molecule": "OCCNc1cncc(-c2cc3c(cn2)cnn3-c2cccc(N3CCNCC3)n2)n1", "Group Label": "fulfilled"}
{"Molecule": "CN(C)C(=O)c1ccc(F)c(-c2nc(C(=O)Nc3cnccc3N3CCC[C@H](N)C3)cs2)c1", "Group Label": "not fulfilled"}
{"Molecule": "CCn1cc(-c2cc3c(cn2)cnn3-c2cccc(NC3CCCCNC3)n2)cn1 (stereo not shown)", "Group Label": "not fulfilled"}
{"Molecule": "CO[C@]1(C)CNCCN(c2cccc(-n3ncc4cnc(-c5cnn(CC(F)(F)F)c5)cc43)n2)C1", "Group Label": "not fulfilled"}
{"Molecule": "CO[C@@]1(C)CNCCN(c2cccc(-n3ncc4cnc(-c5cnn(CC(F)(F)F)c5)cc43)n2)C1", "Group Label": "not fulfilled"}
{"Molecule": "Cn1ncc(-c2cc3c(cn2)cnn3-c2cccc(N3CCCNCC3)n2)cc1=O", "Group Label": "not fulfilled"}
{"Molecule": "CCn1cc(-c2cc3c(cn2)cnn3-c2cccc(N3CCC(O)CC3)n2)cn1", "Group Label": "not fulfilled"}
{"Molecule": "Cc1cccc(-c2nc(C(=O)Nc3cnccc3N3CCC[C@H](N)C3)c(N)s2)c1", "Group Label": "fulfilled"}
{"Molecule": "Cc1cncc(-c2cc3c(cn2)cnn3-c2cccc(N3CC(O)C(O)C3)n2)n1 (stereo not shown)", "Group Label": "not fulfilled"}
{"Molecule": "Nc1[nH]c(-c2ccccc2)nc1C(=O)Nc1cnccc1N1CCC[C@H](N)C1", "Group Label": "not fulfilled"}
{"Molecule": "Cn1cc(-c2cc3c(cn2)cnn3-c2cn(C)c(=O)c(N3CCC[C@H](N)C3)n2)cn1", "Group Label": "not fulfilled"}
{"Molecule": "O[C@H]1CCC[C@@H]1Nc1cncc(-c2cc3c(cn2)cnn3-c2cccc(N3CCNCC3)n2)n1", "Group Label": "not fulfilled"}
